Experiment: chemical genetic growth profiling, strain panel (AID 1159580);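 note: tested at 20 µM; growth read once vehicle control cultures reached saturation at 30 °C; 1 = growth at the plate median or of vehicle wells; lower values mean less growth of the strain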
Details: S. cerevisiae deletion strains, growth OD, locus YDR392W, strain spt3
Screen size: about 5,500 compounds; about 2,000 (36%) were called active. Roughly 18% stayed inconclusive and do not appear here. Cut-off read from the data, not from the text of the source: active = normalized growth mostly below about 0.91 (no sharp cut-off); inconclusive = no clear call, values can overlap the other calls; inactive = mostly above about 0.92. Some of the results follow.
A correct response names exactly one class from TRUE = active, FALSE = inactive

{"STRUCTURE_SMILES_STRING": "COc1ccc2c(c1)[nH]c1c(C)nccc12", "QUALITATIVE_LABEL": "FALSE"}
{"STRUCTURE_SMILES_STRING": "COc1ccc(Cc2nccc3cc(OC)c(OC)cc23)cc1OC", "QUALITATIVE_LABEL": "FALSE"}
{"STRUCTURE_SMILES_STRING": "FC(F)(F)COCC(F)(F)F", "QUALITATIVE_LABEL": "FALSE"}

Query :: For this molecule, state the assay outcome: `COc1ccc2ccc(=O)oc2c1CC=C(C)C`
Result :: TRUE

Query :: For this molecule, state the assay outcome: `O=C(O)CCCN1C(=O)c2cccc3cccc(c23)C1=O`
Result :: FALSE

Query :: For this molecule, state the assay outcome: `CC(C)=CCC/C(C)=C/COc1ccc2ccc(=O)oc2c1`
Result :: FALSE

Query :: For this molecule, state the assay outcome: `COC(=O)C1=CO[C@@H](O[C@@H]2O[C@H](CO)[C@@H](O)[C@H](O)[C@H]2O)[C@@H]2[C@@H](C)[C@@H](O)C[C@H]12`
Result :: FALSE

Query :: For this molecule, state the assay outcome: `COc1c(O)cc(O)cc1O`
Result :: FALSE

----------
Test: chemical genetic growth profiling, strain panel (AID 1159580);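 note: tested at 20 µM; growth read once vehicle control cultures reached saturation at 30 °C; 1 = growth at the plate median or of vehicle wells; lower values mean less growth of the strain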
Details: S. cerevisiae deletion strains, growth OD, locus YBR279W, strain paf1, active compounds read low
The whole screen tested about 5,500 compounds, of which about 2,000 (36%) were called active. Inconclusive results (about 18%) are left out. Some of the results follow.
Hi there, I'd appreciate the recorded normalized growth for every entry that follows.
Answers are plain numbers.

{"COMPOUND": "O=C1c2ccccc2C(=O)c2c(O)c(O)cc(O)c21", "MEAS_VALUE": 0.478}
{"COMPOUND": "O=C1OC(=O)C2C3CCC(O3)C12 (stereo unspecified)", "MEAS_VALUE": 1}

# batch: return normalized growth for each of the 2 compounds below
1. CCCCC/C=C\C/C=C\C/C=C\C/C=C\CCCC(=O)O
2. COc1cc2ccc(=O)oc2c(OC)c1OC

Result ::
0.976
0.991

# batch: return normalized growth for each of the 2 compounds below
1. COc1ccc2c(c1)[nH]c1c(C)nccc12
2. Fc1ccc(C(c2ccc(F)cc2)N2CCN(C/C=C/c3ccccc3)CC2)cc1

Result ::
[0.991, 0.488]

# batch: return normalized growth for each of the 7 compounds below
1. CC(C)=CCOc1c2occc2cc2ccc(=O)oc12
2. NCCS
3. O=C(/C=C/C(=O)Oc1ccccc1C(=O)O)Oc1ccccc1C(=O)O
4. CCC(=O)O[C@H]1CCC2C3CCc4cc(O)ccc4C3CC[C@@]21C (stereo partly specified)
5. COc1c2c(cc3occ(-c4ccc5c(c4)OCO5)c(=O)c13)OC(C)(C)C=C2
6. COc1ccc2c(=O)c(-c3cc4c(cc3OC)OCO4)coc2c1
7. CC(C)=CCOc1cc2oc(=O)ccc2cc1O

Result ::
1. 0.921
2. 1
3. 0.978
4. 1
5. 1.03
6. 1.02
7. 0.962
